- Measurement target: Amine oxidase [flavin-containing] B (Rattus norvegicus, UniProt P19643)
- Sequence (P19643 whole entry): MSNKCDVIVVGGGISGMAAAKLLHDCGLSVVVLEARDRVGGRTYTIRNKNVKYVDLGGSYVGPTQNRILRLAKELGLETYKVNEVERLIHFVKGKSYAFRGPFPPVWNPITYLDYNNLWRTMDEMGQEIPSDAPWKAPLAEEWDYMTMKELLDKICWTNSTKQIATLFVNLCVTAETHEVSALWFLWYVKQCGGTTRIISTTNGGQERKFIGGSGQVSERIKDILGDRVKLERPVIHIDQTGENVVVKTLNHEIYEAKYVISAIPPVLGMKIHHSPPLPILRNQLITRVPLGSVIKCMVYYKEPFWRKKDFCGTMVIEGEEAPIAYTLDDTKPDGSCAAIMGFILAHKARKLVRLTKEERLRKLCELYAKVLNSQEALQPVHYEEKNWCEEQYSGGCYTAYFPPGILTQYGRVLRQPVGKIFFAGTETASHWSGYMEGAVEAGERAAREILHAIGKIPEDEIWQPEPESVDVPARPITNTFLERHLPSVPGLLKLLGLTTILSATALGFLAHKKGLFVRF
pIC50: −log10 of the molar value.

{"columns": ["Smi", "Measurement target", "pIC50"],
 "data": [
  ["Cc1c(C)c2ccc(OCCCN(C)Cc3ccccc3)cc2oc1=O", "Amine oxidase [flavin-containing] B (Rattus norvegicus, UniProt P19643)", 6.48],
  ["CN(Cc1ccc(C#N)cc1)Cc1ccc(COc2ccc3ccc(=O)oc3c2)cc1", "Amine oxidase [flavin-containing] B (Rattus norvegicus, UniProt P19643)", 6.57],
  ["CN(Cc1cccc(Cl)c1)Cc1cccc(COc2ccc3ccc(=O)oc3c2)c1", "Amine oxidase [flavin-containing] B (Rattus norvegicus, UniProt P19643)", 5.47],
  ["CN(Cc1ccc(C#N)cc1)Cc1ccc(COc2ccc3c(CO)cc(=O)oc3c2)cc1", "Amine oxidase [flavin-containing] B (Rattus norvegicus, UniProt P19643)", 7.46],
  ["Cc1c(C)c2ccc(OCc3ccc(CN(C)Cc4ccccc4)cc3)cc2oc1=O", "Amine oxidase [flavin-containing] B (Rattus norvegicus, UniProt P19643)", 5.92]
]}

---

- Measurement target: Cholinesterase (Equus caballus, UniProt P81908)
- Sequence (P81908 whole entry): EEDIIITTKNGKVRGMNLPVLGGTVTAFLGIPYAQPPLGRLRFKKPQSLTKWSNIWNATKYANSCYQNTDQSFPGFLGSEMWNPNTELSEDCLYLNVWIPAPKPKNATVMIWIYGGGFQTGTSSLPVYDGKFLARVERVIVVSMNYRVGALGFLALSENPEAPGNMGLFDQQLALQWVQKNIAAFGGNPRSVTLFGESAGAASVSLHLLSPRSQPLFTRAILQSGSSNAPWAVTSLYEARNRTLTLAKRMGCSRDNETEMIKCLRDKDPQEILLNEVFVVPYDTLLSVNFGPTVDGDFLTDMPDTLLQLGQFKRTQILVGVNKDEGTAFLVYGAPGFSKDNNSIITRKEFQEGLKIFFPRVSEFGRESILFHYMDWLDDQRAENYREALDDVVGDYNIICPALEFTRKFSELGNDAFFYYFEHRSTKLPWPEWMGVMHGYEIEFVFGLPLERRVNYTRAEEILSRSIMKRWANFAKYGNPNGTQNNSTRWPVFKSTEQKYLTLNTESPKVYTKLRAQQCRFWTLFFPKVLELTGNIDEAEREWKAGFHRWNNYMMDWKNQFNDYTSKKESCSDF
- Test details: Inhibition of equine serum BuChE by spectrophotometric Ellman's method
pIC50: −log10 of the molar value.
Tag: 1 if measured pIC50 is not below 6, -1 if it is.

{"columns": ["Smi", "Category label"],
 "data": [
  ["CN(Cc1cccc(Cl)c1)Cc1cccc(COc2ccc3ccc(=O)oc3c2)c1", 1],
  ["CN(Cc1ccccc1)Cc1ccc(COc2ccc3ccc(=O)oc3c2)cc1", -1],
  ["CN(Cc1ccc(COc2ccc3ccc(=O)oc3c2)cc1)Cc1cccc(C#N)c1", -1],
  ["O=c1ccc2ccc(OCc3ccc(CCNCc4ccccc4)cc3)cc2o1", 1],
  ["CCN(CC)Cc1ccc(COc2ccc3ccc(=O)oc3c2)cc1", -1],
  ["CN(Cc1ccc(COc2ccc3c(CO)cc(=O)oc3c2)cc1)Cc1cccc(Cl)c1", 1],
  ["Cc1c(C)c2ccc(OCCCCCN(C)Cc3ccccc3)cc2oc1=O", -1],
  ["CCN(CC)Cc1cccc(COc2ccc3ccc(=O)oc3c2)c1", -1],
  ["CCN(CCCCCCOc1ccc2c(C)c(C)c(=O)oc2c1)Cc1ccccc1", 1],
  ["CN(C)Cc1ccc(COc2ccc3ccc(=O)oc3c2)cc1", 1],
  ["Cc1c(C)c2ccc(OCCCN(C)Cc3ccccc3)cc2oc1=O", -1]
]}
